The measured values listed here are drawn from the supplement of paper PMC10567573.

B1: LCOR (parent)
chain: PCAGSTSLSHSPGCSSTQGNGRPG

Variants of: B1
ASSAY COMMENT: protein stability index of a GFP-peptide fusion (GPS, HEK-293T) (PSI 1-6); higher = more stable;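 further: lentivirally expressed fusions sorted by FACS into six bins by GFP to DsRed ratio, PSI derived from sequencing read proportions per bin multiplied by bin number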
EXPERIMENTAL CONDITIONS: c terminus: a fixed tail appended
The threshold is inclusive: protein stability index of exactly 4 counts as Condition met; values below receive Condition not met.

{"MUTATION NAME": "G24F", "QUALITATIVE LABEL": "Condition not met"}
{"MUTATION NAME": "C2Y", "QUALITATIVE LABEL": "Condition not met"}
{"MUTATION NAME": "P23L", "QUALITATIVE LABEL": "Condition not met"}
{"MUTATION NAME": "G19E", "QUALITATIVE LABEL": "Condition not met"}
{"MUTATION NAME": "P23Y", "QUALITATIVE LABEL": "Condition not met"}
{"MUTATION NAME": "P1N", "QUALITATIVE LABEL": "Condition met"}
{"MUTATION NAME": "G4L", "QUALITATIVE LABEL": "Condition not met"}
{"MUTATION NAME": "L8E", "QUALITATIVE LABEL": "Condition met"}
{"MUTATION NAME": "S11F", "QUALITATIVE LABEL": "Condition not met"}
{"MUTATION NAME": "S15W", "QUALITATIVE LABEL": "Condition not met"}
{"MUTATION NAME": "S16A", "QUALITATIVE LABEL": "Condition not met"}
{"MUTATION NAME": "S16L", "QUALITATIVE LABEL": "Condition not met"}
{"MUTATION NAME": "G24E", "QUALITATIVE LABEL": "Condition not met"}
{"MUTATION NAME": "P23C", "QUALITATIVE LABEL": "Condition not met"}
{"MUTATION NAME": "T17Y", "QUALITATIVE LABEL": "Condition not met"}
{"MUTATION NAME": "R22D", "QUALITATIVE LABEL": "Condition met"}
{"MUTATION NAME": "G24D", "QUALITATIVE LABEL": "Condition not met"}
{"MUTATION NAME": "S9Q", "QUALITATIVE LABEL": "Condition not met"}
{"MUTATION NAME": "H10C", "QUALITATIVE LABEL": "Condition not met"}
{"MUTATION NAME": "P23W", "QUALITATIVE LABEL": "Condition not met"}
{"MUTATION NAME": "S9F", "QUALITATIVE LABEL": "Condition not met"}
{"MUTATION NAME": "S5K", "QUALITATIVE LABEL": "Condition met"}
{"MUTATION NAME": "C2L", "QUALITATIVE LABEL": "Condition met"}
{"MUTATION NAME": "G13S", "QUALITATIVE LABEL": "Condition not met"}
{"MUTATION NAME": "G19K", "QUALITATIVE LABEL": "Condition not met"}
{"MUTATION NAME": "P23K", "QUALITATIVE LABEL": "Condition not met"}
